From: the supplement of paper PMC10307832

- System: LC-2-ad
- assay notes: relative viability (nuclei count vs DMSO), 5 days (fraction); higher = more cells survive
- condition details: first compound 0.253 µM
Assign relative viability to each entry below.
Give bare numbers.

// below: answered compounds
compound	test target	experimental readout	measured result
C=C1C(=O)O[C@@H](CCCCCCCC)[C@@H]1C(=O)O [C-75] + C[C@]1(O)C[C@@H](c2nc(-c3ccc4ccc(-c5ccccc5)nc4c3)c3c(N)nccn32)C1 [Linsitinib] (partner 1 µM)	LC-2-ad	relative viability	0.865
C=C1C(=O)O[C@@H](CCCCCCCC)[C@@H]1C(=O)O [C-75] + O=C(c1cc(Cc2n[nH]c(=O)c3ccccc23)ccc1F)N1CCN(C(=O)C2CC2)CC1 [Olaparib] (partner 8 µM)	LC-2-ad	relative viability	0.751
Oc1nc(-c2ccc(C(F)(F)F)cc2)nc2c1CSCC2 [XAV939] + CC1(C)CCC(c2ccc(Cl)cc2)=C(CN2CCN(c3ccc(C(=O)NS(=O)(=O)c4ccc(N[C@H](CCN5CCOCC5)CSc5ccccc5)c(S(=O)(=O)C(F)(F)F)c4)cc3)CC2)C1 [Navitoclax] (partner 0.5 µM)	LC-2-ad	relative viability	0.429
C=C1C(=O)O[C@@H](CCCCCCCC)[C@@H]1C(=O)O [C-75] + NC(=O)Nc1cc(-c2cccc(F)c2)sc1C(=O)N[C@H]1CCCNC1 [AZD7762] (partner 0.2 µM)	LC-2-ad	relative viability	0.813
Oc1nc(-c2ccc(C(F)(F)F)cc2)nc2c1CSCC2 [XAV939] + CS(=O)(=O)N1CCN(Cc2cc3nc(-c4cccc5[nH]ncc45)nc(N4CCOCC4)c3s2)CC1 [Pictilisib] (partner 1 µM)	LC-2-ad	relative viability	1.13

Okay, now this compound:
Look up relative viability: Oc1nc(-c2ccc(C(F)(F)F)cc2)nc2c1CSCC2 [XAV939] + O=C(CCCCCCC(=O)Nc1ccccc1)NO [Vorinostat] (partner 1 µM) 0.689

----------
Assign relative viability to each entry below.
- Tested on: NCI-H1395
- assay notes: relative viability (nuclei count vs DMSO), 5 days (fraction); higher = more cells survive
- condition details: first compound 0.5 µM
One number for each entry.

// below: answered molecules
molecule	test target	relative viability
CC1(C)CCC(c2ccc(Cl)cc2)=C(CN2CCN(c3ccc(C(=O)NS(=O)(=O)c4ccc(N[C@H](CCN5CCOCC5)CSc5ccccc5)c(S(=O)(=O)C(F)(F)F)c4)cc3)CC2)C1 [Navitoclax] + CS(=O)(=O)CCNCc1ccc(-c2ccc3ncnc(Nc4ccc(OCc5cccc(F)c5)c(Cl)c4)c3c2)o1 [Lapatinib] (partner 2 µM)	NCI-H1395	1.06
CC1(C)CCC(c2ccc(Cl)cc2)=C(CN2CCN(c3ccc(C(=O)NS(=O)(=O)c4ccc(N[C@H](CCN5CCOCC5)CSc5ccccc5)c(S(=O)(=O)C(F)(F)F)c4)cc3)CC2)C1 [Navitoclax] + CC(=O)c1c(C)c2cnc(Nc3ccc(N4CCNCC4)cn3)nc2n(C2CCCC2)c1=O [Palbociclib] (partner 0.5 µM)	NCI-H1395	0.583

Okay, now this molecule:
Look up relative viability: CC1(C)CCC(c2ccc(Cl)cc2)=C(CN2CCN(c3ccc(C(=O)NS(=O)(=O)c4ccc(N[C@H](CCN5CCOCC5)CSc5ccccc5)c(S(=O)(=O)C(F)(F)F)c4)cc3)CC2)C1 [Navitoclax] + COc1cc2c(Oc3ccc(NC(=O)C4(C(=O)Nc5ccc(F)cc5)CC4)cc3F)ccnc2cc1OCCCN1CCOCC1 [Foretinib] (partner 0.25 µM) 1.12

----------
Assign relative viability to each entry below.
- Tested on: HCC-15
- assay notes: relative viability (nuclei count vs DMSO), 5 days (fraction); higher = more cells survive
- condition details: first compound 0.5 µM
Answers are plain numbers.

// below: answered compounds
compound	experimental readout	measured result
CC1(C)CCC(c2ccc(Cl)cc2)=C(CN2CCN(c3ccc(C(=O)NS(=O)(=O)c4ccc(N[C@H](CCN5CCOCC5)CSc5ccccc5)c(S(=O)(=O)C(F)(F)F)c4)cc3)CC2)C1 [Navitoclax] + N=C(N)NC(=N)NCCc1ccccc1 [Phenformin] (partner 250 µM)	relative viability	0.422
CC1(C)CCC(c2ccc(Cl)cc2)=C(CN2CCN(c3ccc(C(=O)NS(=O)(=O)c4ccc(N[C@H](CCN5CCOCC5)CSc5ccccc5)c(S(=O)(=O)C(F)(F)F)c4)cc3)CC2)C1 [Navitoclax] + C[C@@H](Oc1cc(-c2cnn(C3CCNCC3)c2)cnc1N)c1c(Cl)ccc(F)c1Cl [Crizotinib] (partner 1 µM)	relative viability	0.786

Okay, now this compound:
Look up relative viability: CC1(C)CCC(c2ccc(Cl)cc2)=C(CN2CCN(c3ccc(C(=O)NS(=O)(=O)c4ccc(N[C@H](CCN5CCOCC5)CSc5ccccc5)c(S(=O)(=O)C(F)(F)F)c4)cc3)CC2)C1 [Navitoclax] + Cc1cc(Nc2cc(N3CCN(C)CC3)nc(Sc3ccc(NC(=O)C4CC4)cc3)n2)n[nH]1 [Tozasertib] (partner 0.1 µM) 0.467

----------
- Tested on: NCI-H358
- assay notes: relative viability (nuclei count vs DMSO), 5 days (fraction); higher = more cells survive
- condition details: first compound 0.005 µM
experimental readout: relative viability

compound	experimental readout	measured result
CC1(C)CCC(c2ccc(Cl)cc2)=C(CN2CCN(c3ccc(C(=O)NS(=O)(=O)c4ccc(N[C@H](CCN5CCOCC5)CSc5ccccc5)c(S(=O)(=O)C(F)(F)F)c4)cc3)CC2)C1 [Navitoclax] + Cc1nc(NC(=O)N2CCC[C@H]2C(N)=O)sc1-c1ccnc(C(C)(C)C(F)(F)F)c1 [Alpelisib] (partner 2 µM)	relative viability	0.817
CC1(C)CCC(c2ccc(Cl)cc2)=C(CN2CCN(c3ccc(C(=O)NS(=O)(=O)c4ccc(N[C@H](CCN5CCOCC5)CSc5ccccc5)c(S(=O)(=O)C(F)(F)F)c4)cc3)CC2)C1 [Navitoclax] + NC(=O)Nc1cc(-c2cccc(F)c2)sc1C(=O)N[C@H]1CCCNC1 [AZD7762] (partner 0.2 µM)	relative viability	0.566

Okay, now this compound:
Look up relative viability: CC1(C)CCC(c2ccc(Cl)cc2)=C(CN2CCN(c3ccc(C(=O)NS(=O)(=O)c4ccc(N[C@H](CCN5CCOCC5)CSc5ccccc5)c(S(=O)(=O)C(F)(F)F)c4)cc3)CC2)C1 [Navitoclax] + O=C(c1cc(Cc2n[nH]c(=O)c3ccccc23)ccc1F)N1CCN(C(=O)C2CC2)CC1 [Olaparib] (partner 8 µM) 0.566

----------
- Test system: NCI-H2170
- assay notes: relative viability (nuclei count vs DMSO), 5 days (fraction); higher = more cells survive
- condition details: first compound 0.4 µM
Strictly below 0.5 in relative viability: Satisfied. Otherwise: Not satisfied.

compound	category label
O=C(O)c1ccc(-c2c[nH]c3ncc(-c4ccccc4)cc23)cc1C1CCCC1 + COc1cccc2cc(-c3nc([C@H]4CC[C@H](C(=O)O)CC4)n4ncnc(N)c34)[nH]c12 [OSI-027] (partner 0.5 µM)	Not satisfied

is_below(relative viability, 0.5) for O=C(O)c1ccc(-c2c[nH]c3ncc(-c4ccccc4)cc23)cc1C1CCCC1 + Nc1nc2[nH]cc(CCc3ccc(C(=O)N[C@@H](CCC(=O)O)C(=O)O)cc3)c2c(=O)[nH]1 [Pemetrexed] (partner 0.2 µM) ? Satisfied

is_below(relative viability, 0.5) for O=C(O)c1ccc(-c2c[nH]c3ncc(-c4ccccc4)cc23)cc1C1CCCC1 + CC1(C)CCC(c2ccc(Cl)cc2)=C(CN2CCN(c3ccc(C(=O)NS(=O)(=O)c4ccc(N[C@H](CCN5CCOCC5)CSc5ccccc5)c(S(=O)(=O)C(F)(F)F)c4)cc3)CC2)C1 [Navitoclax] (partner 0.5 µM) ? Satisfied

is_below(relative viability, 0.5) for O=C(O)c1ccc(-c2c[nH]c3ncc(-c4ccccc4)cc23)cc1C1CCCC1 + Nc1ncn([C@H]2C[C@H](O)[C@@H](CO)O2)c(=O)n1 [Decitabine] (partner 2 µM) ? Satisfied

is_below(relative viability, 0.5) for O=C(O)c1ccc(-c2c[nH]c3ncc(-c4ccccc4)cc23)cc1C1CCCC1 + NC(=O)Nc1cc(-c2cccc(F)c2)sc1C(=O)N[C@H]1CCCNC1 [AZD7762] (partner 0.2 µM) ? Not satisfied

is_below(relative viability, 0.5) for O=C(O)c1ccc(-c2c[nH]c3ncc(-c4ccccc4)cc23)cc1C1CCCC1 + CC(=O)c1c(C)c2cnc(Nc3ccc(N4CCNCC4)cn3)nc2n(C2CCCC2)c1=O [Palbociclib] (partner 0.5 µM) ? Satisfied

----------
Assign relative viability to each entry below.
- Tested on: NCI-H2085
- assay notes: relative viability (nuclei count vs DMSO), 5 days (fraction); higher = more cells survive
- condition details: first compound 0.08 µM
One number for each entry.

compound	relative viability
Oc1nc(-c2ccc(C(F)(F)F)cc2)nc2c1CSCC2 [XAV939] + O=C(c1cc(Cc2n[nH]c(=O)c3ccccc23)ccc1F)N1CCN(C(=O)C2CC2)CC1 [Olaparib] (partner 8 µM)	0.782
C=C1C(=O)O[C@@H](CCCCCCCC)[C@@H]1C(=O)O [C-75] + CC(=O)Nc1cccc(-n2c(=O)n(C3CC3)c(=O)c3c(Nc4ccc(I)cc4F)n(C)c(=O)c(C)c32)c1 [Trametinib] (partner 0.02 µM)	0.519
Oc1nc(-c2ccc(C(F)(F)F)cc2)nc2c1CSCC2 [XAV939] + CC1(C)CCC(c2ccc(Cl)cc2)=C(CN2CCN(c3ccc(C(=O)NS(=O)(=O)c4ccc(N[C@H](CCN5CCOCC5)CSc5ccccc5)c(S(=O)(=O)C(F)(F)F)c4)cc3)CC2)C1 [Navitoclax] (partner 0.5 µM)	1.1

Okay, now this compound:
Look up relative viability: Oc1nc(-c2ccc(C(F)(F)F)cc2)nc2c1CSCC2 [XAV939] + CS(=O)(=O)N1CCN(Cc2cc3nc(-c4cccc5[nH]ncc45)nc(N4CCOCC4)c3s2)CC1 [Pictilisib] (partner 1 µM) 0.388
